Where these numbers come from: paper PMC6457126

- system_name: T1, ATAD2 CO C1057A/C1079A/C1101A bromodomain (triple cysteine mutant) (human, UniProt Q6PL18 981-1108, C1057A | C1079A | C1101A)
- T1 sequence: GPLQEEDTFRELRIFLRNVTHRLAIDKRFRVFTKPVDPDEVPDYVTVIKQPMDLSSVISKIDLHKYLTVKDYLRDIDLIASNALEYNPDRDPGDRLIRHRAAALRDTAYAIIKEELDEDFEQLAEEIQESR
- assay_remarks: ITC
No end group written: not given here.
endpoint_label: pKd
// field semantics: pKd = negative decimal log of concentration (mol/L)

pKd lookup needed for SGRGK(Ac)GGKGL [histone H4K5ac peptide (residues 1-10)] , thanks.
3.95
